Data credit: patent US8710043B2

molecular target: human TRPM8 (Homo sapiens, UniProt Q7Z2W7); construct: expressed in transfected cells; host or cells: Chinese hamster ovary (CHO) cells, T-REx tetracycline-inducible system, co-transfected with aequorin; assay: Luminescence readout assay for measuring intracellular calcium, icilin activation; type: cell-based; settings: CHO cells expressing human TRPM8, aequorin luminescence, 1 μM icilin activation; read-out: hTRPM8 IC50
Sequence (Q7Z2W7 whole entry): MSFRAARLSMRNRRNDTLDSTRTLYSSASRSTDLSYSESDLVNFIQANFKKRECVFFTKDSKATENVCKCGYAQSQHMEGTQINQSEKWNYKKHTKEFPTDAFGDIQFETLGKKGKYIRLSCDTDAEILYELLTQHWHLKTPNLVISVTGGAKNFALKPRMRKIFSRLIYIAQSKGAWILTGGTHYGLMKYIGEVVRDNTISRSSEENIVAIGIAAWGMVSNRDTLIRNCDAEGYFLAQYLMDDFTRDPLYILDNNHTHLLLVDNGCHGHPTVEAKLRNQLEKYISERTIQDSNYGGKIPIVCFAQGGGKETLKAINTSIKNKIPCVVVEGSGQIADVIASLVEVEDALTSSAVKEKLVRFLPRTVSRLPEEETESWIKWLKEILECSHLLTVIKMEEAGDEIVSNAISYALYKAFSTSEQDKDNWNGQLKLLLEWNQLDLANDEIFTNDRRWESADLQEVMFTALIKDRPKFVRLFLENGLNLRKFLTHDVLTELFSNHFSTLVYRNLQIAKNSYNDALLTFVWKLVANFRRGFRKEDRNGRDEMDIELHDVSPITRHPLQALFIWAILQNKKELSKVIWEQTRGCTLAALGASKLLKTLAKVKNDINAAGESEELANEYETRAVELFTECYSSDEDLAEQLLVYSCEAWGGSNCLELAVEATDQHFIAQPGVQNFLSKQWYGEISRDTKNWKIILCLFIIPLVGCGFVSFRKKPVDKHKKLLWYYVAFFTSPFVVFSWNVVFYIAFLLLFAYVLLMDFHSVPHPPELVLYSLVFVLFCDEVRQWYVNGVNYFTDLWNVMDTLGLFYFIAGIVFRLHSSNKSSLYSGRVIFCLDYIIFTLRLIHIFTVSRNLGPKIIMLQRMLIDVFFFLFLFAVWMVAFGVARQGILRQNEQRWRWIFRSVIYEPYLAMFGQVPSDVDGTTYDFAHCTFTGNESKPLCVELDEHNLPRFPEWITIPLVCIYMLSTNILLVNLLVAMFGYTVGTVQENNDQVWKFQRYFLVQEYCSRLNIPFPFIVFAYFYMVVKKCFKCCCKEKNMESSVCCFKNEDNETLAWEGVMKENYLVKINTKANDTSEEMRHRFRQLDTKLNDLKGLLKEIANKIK
Form field: IC50 (one value per entry).
Numbers only here, please. The scale is nM.

Answered cases to consult:
{"columns": ["Compound", "IC50 (nM)"],
 "data": [
  ["O=C1CC(C(=O)N[C@@H](c2ccc(C(F)(F)F)cc2)c2ncccc2C(F)(F)F)CN1 (stereo partly shown)", 3180],
  ["O=C(N[C@@H](c1ccc(C(F)(F)F)cc1)c1ncccc1C(F)(F)F)c1ccc(I)cc1", 107],
  ["O=C(N[C@@H](c1ccc(C(F)(F)F)cc1)c1ncccc1F)c1ccc(=O)n(CCO)c1", 33.7]
]}

Proceed to the following item.
Query :: Identify measured IC50 obtained with human TRPM8 (Homo sapiens, UniProt Q7Z2W7) for "O=C1CCc2cc(C(=O)N[C@@H](c3ccc(OC(F)(F)F)cc3)c3ncccc3F)ccc2N1" .
Result :: 18.8

###

target: human TRPM8 (Homo sapiens, UniProt Q7Z2W7); construct: expressed in transfected cells; host or cells: Chinese hamster ovary (CHO) cells, T-REx tetracycline-inducible system, co-transfected with aequorin; assay: Luminescence readout assay for measuring intracellular calcium, icilin activation; type: cell-based; conditions: CHO cells expressing human TRPM8, aequorin luminescence, 1 μM icilin activation; read-out: hTRPM8 IC50
Property: pIC50
In textbook form, pIC50 equals minus log to base ten of the concentration in mol/L.

{"columns": ["Compound", "pIC50"],
 "data": [
  ["O=C(N[C@@H](c1ccc(Cl)c(F)c1)c1ncccc1F)c1ccc(=O)[nH]c1", 7.35]
]}

Query :: Give the value of pIC50 reported for the following: "Cn1cnc2ccc(C(=O)N[C@@H](c3ccc(C(F)(F)F)cc3)c3ncccc3F)cc21"
Result :: 8.18

Query :: Give the value of pIC50 reported for the following: O=C(N[C@@H](c1ccc(C(F)(F)F)cc1)c1ncccc1F)c1ccc2nccn2c1 [Example 253, 2,2,2-trifluoroacetate]
Result :: 7.94

Query :: Give the value of pIC50 reported for the following: "Cc1cccnc1[C@@H](NC(=O)c1ccc2nccn2c1)c1ccc(C(F)(F)F)cc1"
Result :: 7.66

Query :: Give the value of pIC50 reported for the following: "Cc1ncncc1C(=O)N[C@@H](c1ccc(C(F)(F)F)cc1)c1ncccc1C(F)(F)F"
Result :: 7.11

Query :: Give the value of pIC50 reported for the following: O=C(NC(c1ccc(C(F)(F)F)cc1)c1ncccc1F)c1cccc(F)c1 (centres unmarked)
Result :: 6.98

Query :: Give the value of pIC50 reported for the following: Nc1nc(C(=O)N[C@@H](c2ccc(C(F)(F)F)cc2)c2ncccc2C(F)(F)F)cs1 [Example 136, 2,2,2-trifluoroacetate]
Result :: 6.92

Query :: Give the value of pIC50 reported for the following: "O=C(N[C@@H](c1ccc(C(F)(F)F)cc1)c1ncccc1F)c1ccc(=O)n(CC(F)(F)F)c1"
Result :: 7.05

###

molecular target: human TRPM8 (Homo sapiens, UniProt Q7Z2W7); construct: expressed in transfected cells; host or cells: Chinese hamster ovary (CHO) cells, T-REx tetracycline-inducible system, co-transfected with aequorin; experiment: Luminescence readout assay for measuring intracellular calcium, icilin activation; type: cell-based; conditions: CHO cells expressing human TRPM8, aequorin luminescence, 1 μM icilin activation; read-out: hTRPM8 IC50
Property: IC50 (µM)
Numbers only here, please. The scale is µM.

Answered cases to consult:
{"columns": ["Molecule", "IC50 (µM)"],
 "data": [
  ["O=C(N[C@@H](c1ccc(OC(F)(F)F)cc1)c1ncccc1F)c1ccc2cccnc2c1 [Example 2]", 0.017],
  ["O=C(N[C@@H](c1ccc(C(F)(F)F)cc1)c1ncccc1C(F)(F)F)c1ccc(Cl)cc1 [Example 185]", 0.029],
  ["O=C(N[C@@H](c1ccc(C(F)(F)F)cc1)c1ncccc1F)c1ccc(=O)n(Cc2ccccc2)c1 [Example 371]", 0.19],
  ["N#Cc1ccc(C(=O)N[C@@H](c2ccc(C(F)(F)F)cc2)c2ncccc2F)cc1 (stereo in doubt) [Example 200]", 0.0493],
  ["O=C(N[C@@H](c1ccc(C(F)(F)F)cc1)c1ncccc1C(F)(F)F)c1c[nH]c2ncccc12 [Example 43]", 0.0245]
]}

Query :: Give the value of IC50 reported for the following: O=C(N[C@@H](c1ccc(C(F)(F)F)c(F)c1)c1ncccc1C(F)(F)F)c1ccc2cccnc2n1 [Example 129, 2,2,2-trifluoroacetate]
Result :: 0.114

Query :: Give the value of IC50 reported for the following: CC(C)n1cc(C(=O)N[C@@H](c2ccc(C(F)(F)F)cc2)c2ncccc2F)ccc1=O [Example 367]
Result :: 0.0683

###

Form field: pIC50 (one value per entry).
target: human TRPM8 (Homo sapiens, UniProt Q7Z2W7); construct: expressed in transfected cells; host or cells: Chinese hamster ovary (CHO) cells, T-REx tetracycline-inducible system, co-transfected with aequorin; assay: Luminescence readout assay for measuring intracellular calcium, icilin activation; assay type: cell-based; conditions: CHO cells expressing human TRPM8, aequorin luminescence, 1 μM icilin activation; read-out: hTRPM8 IC50
In textbook form, pIC50 equals minus log to base ten of the concentration in mol/L.

{"columns": ["Compound", "pIC50"],
 "data": [
  ["O=C(NC(c1cccc(F)c1)c1ccc(OC(F)(F)F)c(F)c1)c1ccc(=O)[nH]c1 (centres unmarked)", 7.08],
  ["CCCN1C(=O)c2ccc(C(=O)N[C@@H](c3ccc(C(F)(F)F)cc3)c3ncccc3C(F)(F)F)cc2C1=O", 6.87]
]}

Query :: Give the value of pIC50 reported for the following: "O=C(N[C@@H](c1ccc(C(F)(F)F)cc1)c1ncccc1F)c1ccn2nnnc2c1"
Result :: 7.57

Query :: Give the value of pIC50 reported for the following: "O=C(N[C@@H](c1ccc(C(F)(F)F)c(F)c1)c1ncccc1C(F)(F)F)c1ccc2nccnc2c1"
Result :: 7.62

Query :: Give the value of pIC50 reported for the following: "O=C(N[C@@H](c1ccc(OC(F)(F)F)cc1)c1ncccc1F)c1ccc2[nH]c(=O)oc2c1"
Result :: 7.64

Query :: Give the value of pIC50 reported for the following: "O=C(N[C@@H](c1ccc(C(F)(F)F)cc1)c1ncccc1C(F)(F)F)c1cc(O)ccn1"
Result :: 6.76

Query :: Give the value of pIC50 reported for the following: "Cc1cc([C@H](NC(=O)c2ccc(=O)n(C)c2)c2ncccc2F)ccc1F"
Result :: 6.04

Query :: Give the value of pIC50 reported for the following: "O=C(N[C@@H](c1ccc(OC(F)(F)F)c(F)c1)c1ncccc1Br)c1ccc(=O)[nH]c1"
Result :: 8.16

Query :: Give the value of pIC50 reported for the following: "O=C(N[C@@H](c1ccc(C(F)(F)F)cc1)c1ncccc1C(F)(F)F)c1c[nH]c2ncncc12"
Result :: 7.20

Query :: Give the value of pIC50 reported for the following: "O=C(N[C@@H](c1ccc(C(F)(F)F)cc1)c1ncccc1F)c1ccc2[nH]c(=O)[nH]c2c1"
Result :: 7.68

Query :: Give the value of pIC50 reported for the following: "O=C(N[C@@H](c1ccc(C(F)(F)F)cc1)c1ncccc1C(F)(F)F)c1cccs1"
Result :: 7.33

Query :: Give the value of pIC50 reported for the following: "O=C(N[C@@H](c1ccc(OC(F)(F)F)c(F)c1)c1ncccc1F)c1ccc(=O)n(C(F)F)c1"
Result :: 7.78

Query :: Give the value of pIC50 reported for the following: CC(C)Cc1cc(C(=O)N[C@@H](c2ccc(C(F)(F)F)c(F)c2)c2ncccc2C(F)(F)F)c2ccccc2n1 [Example 156, bis (2,2,2-trifluoroacetate)]
Result :: 6.52

Query :: Give the value of pIC50 reported for the following: "O=C(N[C@@H](c1ccc(C(F)(F)F)cc1)c1ncccc1C(F)(F)F)c1ccn2nnnc2c1"
Result :: 7.60

Query :: Give the value of pIC50 reported for the following: "O=C(N[C@@H](c1ccc(C(F)(F)F)cc1)c1ncccc1C(F)(F)F)c1ccc2cn[nH]c2c1"
Result :: 7.52

Query :: Give the value of pIC50 reported for the following: "O=C(N[C@@H](c1ccc(OC(F)(F)F)c(F)c1)c1ncccc1F)c1cc2oc(=O)[nH]c2cn1"
Result :: 7.94

###

target: human TRPM8 (Homo sapiens, UniProt Q7Z2W7); construct: expressed in transfected cells; host or cells: Chinese hamster ovary (CHO) cells, T-REx tetracycline-inducible system, co-transfected with aequorin; experiment: Luminescence readout assay for measuring intracellular calcium, icilin activation; format: cell-based; details: CHO cells expressing human TRPM8, aequorin luminescence, 1 μM icilin activation; read-out: hTRPM8 IC50
Label rule met when IC50 is strictly below 40 nM; at or above that, label rule not met.

# example entries with known answers
{"columns": ["Molecule", "Assigned category"],
 "data": [
  ["O=C(O)c1cccc(C(=O)N[C@@H](c2ccc(C(F)(F)F)cc2)c2ncccc2F)c1", "rule not met"],
  ["O=C(N[C@@H](c1ccc(OC(F)(F)F)c(F)c1)c1ncccc1F)c1ccc(=O)[nH]n1", "rule met"],
  ["O=C(N[C@@H](c1ccc(C(F)(F)F)cc1)c1ncccc1F)c1ccc2cccnc2c1 (stereo in doubt)", "rule not met"],
  ["CC1(C)C[C@H]1c1cccnc1[C@@H](NC(=O)c1ccc2ncccc2c1)c1ccc(C(F)(F)F)cc1", "rule not met"],
  ["O=C(NC(c1ccc(F)cc1)c1ccc(OC(F)(F)F)c(F)c1)c1ccc(=O)[nH]c1 (stereo not drawn)", "rule not met"]
]}

Query :: IC50 under 40 nM? Item: Cc1ccnc(C(NC(=O)c2ccc(=O)[nH]c2)c2ccc(OC(F)(F)F)c(F)c2)c1 (stereo not drawn)
Result :: rule not met

Query :: IC50 under 40 nM? Item: Cc1cncc(C(=O)N[C@@H](c2ccc(C(F)(F)F)cc2)c2ncccc2C(F)(F)F)c1 [Example 182, 2,2,2-trifluoroacetate]
Result :: rule not met

Query :: IC50 under 40 nM? Item: "O=C(N[C@@H](c1ccc(C(F)(F)F)cc1)c1ncccc1F)c1n[nH]c2c1CCC2"
Result :: rule not met
